Assay method text: Anticancer activity against melanoma cells
Type: functional
Test settings: Homo sapiens, Melanoma cell
Readout name: GI50 (µM)

Structure: O=C(c1ccco1)c1c(C(F)(F)F)nc2cc(C(F)(F)F)ccc2[n+]1[O-]
Endpoint unit: µM
Quantitative readout: 80.6
//
Structure: COc1ccc2c(c1)[n+]([O-])c(C(=O)c1ccco1)c(C(F)(F)F)[n+]2[O-]
Endpoint unit: µM
Quantitative readout: 3.03
//
Structure: O=C(c1ccco1)c1nc2cc(C(F)(F)F)ccc2nc1C(F)(F)F
Endpoint unit: µM
Quantitative readout: 100
//
Structure: O=C(c1ccc2ccccc2c1)c1c(C(F)(F)F)[n+]([O-])c2cc(Cl)c(Cl)cc2[n+]1[O-]
Endpoint unit: µM
Quantitative readout: 1.57
//
Structure: O=C(c1ccccc1)c1c(C(F)(F)F)[n+]([O-])c2ccc(C(F)(F)F)cc2[n+]1[O-]
Endpoint unit: µM
Quantitative readout: 1.13
//
Structure: O=C(c1ccco1)c1nc2ccc(C(F)(F)F)cc2[n+]([O-])c1C(F)(F)F
Endpoint unit: µM
Quantitative readout: 46.1
//
Structure: O=C(c1cccs1)c1c(C(F)(F)F)[n+]([O-])c2ccc(Cl)cc2[n+]1[O-]
Endpoint unit: µM
Quantitative readout: 0.12

* * *

Assay method text: Anticancer activity against human NCI60 cells
Type: functional
Readout name: TGI

Structure: O=C(c1ccc2ccccc2c1)c1c(C(F)(F)F)[n+]([O-])c2ccc(F)cc2[n+]1[O-]
Readout name: TGI
Result: 2.82 µM

Structure: O=C(c1ccco1)c1c(C(F)(F)F)[n+]([O-])c2ccc(Cl)cc2[n+]1[O-]
Readout name: TGI
Result: 2.57 µM

Structure: O=C(c1ccco1)c1c(C(F)(F)F)[n+]([O-])c2ccc(F)cc2[n+]1[O-]
Readout name: TGI
Result: 4.27 µM

Structure: O=C(c1ccc2ccccc2c1)c1c(C(F)(F)F)[n+]([O-])c2cc(C(F)(F)F)ccc2[n+]1[O-]
Readout name: TGI
Result: 3.47 µM

* * *

Assay method text: Anticancer activity against human NCI60 cells
Format: functional
Readout name: GI50 (nM)

Structure: O=C(c1ccco1)c1c(C(F)(F)F)[n+]([O-])c2cc(Cl)c(Cl)cc2[n+]1[O-]
Readout name: GI50
Quantitative readout: 630
--
Structure: O=C(c1cccs1)c1c(C(F)(F)F)[n+]([O-])c2ccc(F)cc2[n+]1[O-]
Readout name: GI50
Quantitative readout: 1200
--
Structure: O=C(c1ccc2ccccc2c1)c1c(C(F)(F)F)[n+]([O-])c2ccc(F)cc2[n+]1[O-]
Readout name: GI50
Quantitative readout: 1150
--
Structure: O=C(c1cccs1)c1c(C(F)(F)F)[n+]([O-])c2ccc(Cl)cc2[n+]1[O-]
Readout name: GI50
Quantitative readout: 70
--
Structure: O=C(c1ccco1)c1nc2cc(C(F)(F)F)ccc2nc1C(F)(F)F
Readout name: GI50
Quantitative readout: 87100
--
Structure: O=C(c1cccs1)c1c(C(F)(F)F)[n+]([O-])c2cc(C(F)(F)F)ccc2[n+]1[O-]
Readout name: GI50
Quantitative readout: 180
--
Structure: O=C(c1ccco1)c1c(C(F)(F)F)nc2ccc(C(F)(F)F)cc2[n+]1[O-]
Readout name: GI50
Quantitative readout: 37200
--
Structure: Cc1ccc2c(c1)[n+]([O-])c(C(=O)c1ccco1)c(C(F)(F)F)[n+]2[O-]
Readout name: GI50
Quantitative readout: 660
--
Structure: O=C(c1ccc2ccccc2c1)c1c(C(F)(F)F)[n+]([O-])c2ccc(C(F)(F)F)cc2[n+]1[O-]
Readout name: GI50
Quantitative readout: 720
--
Structure: O=C(c1ccco1)c1c(C(F)(F)F)[n+]([O-])c2cc(C(F)(F)F)ccc2[n+]1[O-]
Readout name: GI50
Quantitative readout: 470
--
Structure: O=C(c1ccco1)c1nc2cc(C(F)(F)F)ccc2[n+]([O-])c1C(F)(F)F
Readout name: GI50
Quantitative readout: 45700
--
Structure: O=C(c1ccco1)c1c(C(F)(F)F)[n+]([O-])c2ccc(F)cc2[n+]1[O-]
Readout name: GI50
Quantitative readout: 1620
--
Structure: O=C(c1ccccc1)c1c(C(F)(F)F)[n+]([O-])c2ccc(C(F)(F)F)cc2[n+]1[O-]
Readout name: GI50
Quantitative readout: 510
--
Structure: O=C(c1ccc2ccccc2c1)c1c(C(F)(F)F)[n+]([O-])c2cc(C(F)(F)F)ccc2[n+]1[O-]
Readout name: GI50
Quantitative readout: 1580
--
Structure: O=C(c1ccc2ccccc2c1)c1c(C(F)(F)F)[n+]([O-])c2cc(Cl)c(Cl)cc2[n+]1[O-]
Readout name: GI50
Quantitative readout: 1580
--
Structure: O=C(c1ccco1)c1c(C(F)(F)F)[n+]([O-])c2ccc(C(F)(F)F)cc2[n+]1[O-]
Readout name: GI50
Quantitative readout: 600
--
Structure: O=C(c1cccs1)c1c(C(F)(F)F)[n+]([O-])c2cc(F)c(F)cc2[n+]1[O-]
Readout name: GI50
Quantitative readout: 370

Just for reference, ChEMBL document CHEMBL1137558 is where these values come from.
